system: human peripheral blood mononuclear cells (PBMCs); assay: Human PBMC activation assay, cytokine levels (IL-10, IL-6, MCP-1, TNF-α) in supernatant after 24 hours (Example 9); conditions: human PBMC supernatant after 24 hours; 1.6 μM oligonucleotide
Assay readout: Levels of IL-10
Provide a numeric answer, followed by its unit.

| Substance | Levels of IL-10 |
| --- | --- |
| 790615 (CCAATGAGAATGCTTC; 3-10-3 cEt gapmer, further chemistry not given here) [compound 790615] | 3.1 pg/mL |

Query :: Which Levels of IL-10 value is on record for 736697 (antisense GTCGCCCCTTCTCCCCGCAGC; chemistry not fully specified) [compound 736697] ?
Result :: 2.2 pg/mL

Query :: Which Levels of IL-10 value is on record for 829994 (GGAGGCAGGGCCGCGA; 3-10-3 cEt gapmer, further chemistry not given here) [compound 829994] ?
Result :: 5.2 pg/mL
